# key: entry, value: Ki
- TESTED_ON: Macrophage metalloelastase (Homo sapiens, UniProt P39900)
- Sequence (P39900 whole entry, the tested form may be a part): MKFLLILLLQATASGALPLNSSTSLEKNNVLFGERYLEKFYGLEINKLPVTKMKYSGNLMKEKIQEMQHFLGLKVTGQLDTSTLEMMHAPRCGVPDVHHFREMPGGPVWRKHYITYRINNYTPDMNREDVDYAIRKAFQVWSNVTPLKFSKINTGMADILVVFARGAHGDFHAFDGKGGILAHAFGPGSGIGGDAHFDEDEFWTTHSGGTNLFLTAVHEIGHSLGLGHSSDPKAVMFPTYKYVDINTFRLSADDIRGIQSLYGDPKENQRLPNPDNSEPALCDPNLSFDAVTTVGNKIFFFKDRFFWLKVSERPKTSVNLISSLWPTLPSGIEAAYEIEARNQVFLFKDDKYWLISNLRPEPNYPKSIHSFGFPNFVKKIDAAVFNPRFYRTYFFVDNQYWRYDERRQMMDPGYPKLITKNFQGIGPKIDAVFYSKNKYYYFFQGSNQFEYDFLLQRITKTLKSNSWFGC
- ASSAY_TEXT: Binding affinity to human MMP12 catalytic domain (98 to 266) by isothermal titration calorimetry
Please respond with the number in nM and leave the unit unwritten.

Sample answers from the record:
| SMILES_REPR | ENDPOINT_VALUE |
| --- | --- |
| NC(=O)[C@H](CCC(=O)O)NC(=O)[C@H](CCC(=O)O)NC(=O)[C@H](Cc1cc(-c2ccccc2)no1)CP(=O)(O)c1ccc(Br)cc1 | 15.5 |
| C[C@H](NC(=O)[C@H](C)NC(=O)[C@H](Cc1cc(-c2ccc(-c3cccc(Cl)c3)cc2)no1)CP(=O)(O)c1ccc(Br)cc1)C(N)=O | 0.28 |

Pending molecule:
I'd like to know its Ki. The molecule in question is C[C@H](NC(=O)[C@H](C)NC(=O)[C@H](Cc1cc(-c2ccccc2)no1)CP(=O)(O)c1ccc(Br)cc1)C(N)=O
14.7
